- Tested on: Human immunodeficiency virus 2
- Assay Protocol: Effective concentration required for antiviral activity against HIV strain MS (HIV-2) by XTT assay
- Format: functional, organism-based
pEC50: −log10 of the molar value.
Quantity Name: pEC50

INSERT INTO assay_data (compound, result_number) VALUES
  ('Cc1cn([C@H]2C[C@H](N=[N+]=[N-])[C@@H](CO)O2)c(=O)[nH]c1=O [ZIDOVUDINE]', 8.70),
  ('CC(C)CCCC(C)[C@H]1CC[C@H]2[C@@H]3CCC4C[C@@H](CCC=C(c5cc(Cl)c(O)c(C(=O)O)c5)c5cc(Cl)c(O)c(C(=O)O)c5)CC[C@]4(C)[C@H]3CC[C@]12C (some centres not stated)', 4.65);
